- Test system: AVA5 cells
- ASSAY_NAME: Cytotoxicity by neutral red dye uptake in AVA5 cells
- Assay type: cell-based
- STUDY_CONDITIONS: Genotype 1b replicon, 3 days
ASSAY_ENDPOINT: log10 of CC50 (log10 of the value in µM)
Heads up, the numbers here are log10 of CC50 in µM units.

- CHEMICAL_SMILES: "O=C(Nc1ncc(Br)s1)c1ccccc1O"
  EXPERIMENTAL_VALUE: 1.99

The value of log10 of CC50 recorded for `Cc1cccc(C(=O)Nc2ncc(Cl)s2)c1O` when tested on AVA5 cells reads 0.75

The value of log10 of CC50 recorded for `O=C(Nc1ncc(Cl)s1)c1ccccc1O` when tested on AVA5 cells reads 1.18

The value of log10 of CC50 recorded for `Cc1ccc(O)c(C(=O)Nc2ncc(Cl)s2)c1` when tested on AVA5 cells reads 0.36

The value of log10 of CC50 recorded for `Cc1ccc(C(=O)Nc2ncc(Cl)s2)c(O)c1` when tested on AVA5 cells reads 0.83

====

- ASSAY_NAME: Cytotoxicity in HCV replicon cells in the presence of human serum
- STUDY_CONDITIONS: CC50, human serum 0 %
ASSAY_ENDPOINT: CC50 at 3 days (µM)
Field format: number, assumed µM, no unit text.

Input O=C(Nc1ncc([N+](=O)[O-])s1)c1ccccc1O [TIZ, tizoxanide] . Output CC50 at 3 days: 28

====

- System: HCV replication
- ASSAY_NAME: HCV replicon assay in the presence of human serum
- Format: cell-based
- STUDY_CONDITIONS: Hepatitis C virus, human serum 30 %
ASSAY_ENDPOINT: EC50 (µM)
Field format: number, assumed µM, no unit text.

Input O=C(Nc1ncc([N+](=O)[O-])s1)c1ccccc1O [TIZ, tizoxanide] . Output EC50: 9.3

====

As shown below, each of these compounds has a reported pEC50 value.
- System: HBV
- ASSAY_NAME: HBV antiviral assay in confluent 2.2.15 cell cultures (HBV DNA, quantitative blot hybridization)
- Type: cell-based, Hepatitis B Virus
- STUDY_CONDITIONS: Hepatitis B virus, read-out: Intracellular HBV RI EC50
pEC50 field: float, defined as -log10 of concentration (mol/L).

Here is how some compounds turned out for pEC50.
- COMPOUND: "O=C(Nc1ncc([N+](=O)[O-])s1)c1ccccc1O [TIZ, tizoxanide]"
  pEC50: 6.34
- COMPOUND: "Nc1ccn([C@@H]2CS[C@H](CO)O2)c(=O)n1"
  pEC50: 6.80

Input CC(=O)Oc1ccccc1C(=O)Nc1ncc([N+](=O)[O-])s1 [NTZ, nitazoxanide] . Output pEC50: 6.23

====

As shown below, each of these molecules has a reported EC50 value.
- Tested on: HBV
- ASSAY_NAME: HBV antiviral assay in confluent 2.2.15 cell cultures (HBV DNA, quantitative blot hybridization)
- Format: cell-based, Hepatitis B Virus
- STUDY_CONDITIONS: Hepatitis B virus; 2.2.15 cells, Table 3 experiment; read-out: HBV R.I. EC50
Give the value; after it, write the unit.

- MOLECULE: "Nc1ccn([C@@H]2CS[C@H](CO)O2)c(=O)n1"
  TARGET_OR_SYSTEM: "HBV"
  EC50: "160 nM"

Consider now this further molecule.
Input CC(=O)Oc1ccccc1C(=O)Nc1ncc([N+](=O)[O-])s1 [NTZ, nitazoxanide] . Output EC50: 730 nM

This collection of values is drawn from patent US8895752B2.
